# Test Target: hP2Y14R (Homo sapiens)
# Construct: expressed in transfected cells; host or cells: CHO cells
# Sequence (Q15391 1-338): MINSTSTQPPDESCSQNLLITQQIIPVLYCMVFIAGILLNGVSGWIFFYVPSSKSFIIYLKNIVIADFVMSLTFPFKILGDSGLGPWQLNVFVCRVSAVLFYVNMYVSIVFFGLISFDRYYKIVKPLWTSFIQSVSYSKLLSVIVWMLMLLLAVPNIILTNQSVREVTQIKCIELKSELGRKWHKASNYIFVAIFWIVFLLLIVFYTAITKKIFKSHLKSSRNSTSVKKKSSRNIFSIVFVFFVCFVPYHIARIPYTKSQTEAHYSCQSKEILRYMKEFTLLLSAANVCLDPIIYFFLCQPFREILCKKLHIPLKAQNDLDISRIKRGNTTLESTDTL
# Assay Remarks: Inhibition of fluorescent antagonist binding in whole hP2Y14R-expressing CHO cells (flow cytometry)
# Condition Summary: Example 5 table; whole cell fluorescent binding assay; read-out: IC50
Entries and their IC50 values follow.
Respond numerically; units are nM and should not be typed.

As a guide, the following entries are already answered.
Compound: O=C(O)c1cc(-c2ccc(C3(O)CCCNCCC3)cc2)c2ccc(-c3ccc(C(F)(F)F)cc3)cc2c1 [Compound 430]
Units Text: nM
IC50: 1780
--
Compound: O=C(O)c1cc(-c2ccc(C3CNC3)cc2)c2ccc(-c3ccc(C(F)(F)F)cc3)cc2c1 [Compound 405]
Units Text: nM
IC50: 65.9
--
Compound: O=C(O)c1cc(-c2ccc(C3(O)CC4(CNC4)C3)cc2)c2ccc(-c3ccc(C(F)(F)F)cc3)cc2c1 [Compound 408]
Units Text: nM
IC50: 20.8

Param readout = IC50; param system = hP2Y14R (Homo sapiens); param query = O=C(O)c1cc(-c2ccc(C3=CC4(CNC4)C3)cc2)c2ccc(-c3ccc(C(F)(F)F)cc3)cc2c1 [Compound 407] ; response: value
9.69

Param readout = IC50; param system = hP2Y14R (Homo sapiens); param query = O=C(O)c1cc(-c2ccc(C3CC4(CNC4)C3)cc2)c2ccc(-c3ccc(C(F)(F)F)cc3)cc2c1 [Compound 406] ; response: value
46.6

* * *

Entries and their Solubility (ug/mL) pH 7.4 values follow.
# Assay Remarks: Aqueous solubility, pION method
# Condition Summary: pH 7.4
Respond numerically; units are ug/mL and should not be typed.

Name the recorded Solubility (ug/mL) pH 7.4 for O=C(O)c1cc(-c2ccc(C3CC4CCC3CN4)cc2)c2ccc(-c3ccc(C(F)(F)F)cc3)cc2c1 (racemic) .
0.49

Name the recorded Solubility (ug/mL) pH 7.4 for CC1CNCCC1c1ccc(-c2cc(C(=O)O)cc3cc(-c4ccc(C(F)(F)F)cc4)ccc23)cc1 (mixture of isomers) .
0.03

Name the recorded Solubility (ug/mL) pH 7.4 for N[C@H]1C[C@@H](C(=O)O)[C@H](c2ccc(-c3cc(C(=O)O)cc4cc(-c5ccc(C(F)(F)F)cc5)ccc34)cc2)C1 .
5.52

Name the recorded Solubility (ug/mL) pH 7.4 for O=C(O)c1cc(-c2ccc(C3=CC4CCC(C3)N4)cc2)c2ccc(-c3ccc(C(F)(F)F)cc3)cc2c1 (stereo not shown) .
0.35

* * *

# Assay Remarks: Aqueous solubility, pION method
# Condition Summary: pH 4
Entries and their Solubility (ug/mL) pH 4 values follow.
Answer shape: numeric part, then the unit.

Name the recorded Solubility (ug/mL) pH 4 for O=C(O)c1cc(-c2ccc([C@@H]3C[C@@H]4C[C@H]3C(=O)N4)cc2)c2ccc(-c3ccc(C(F)(F)F)cc3)cc2c1 .
0.31 ± 0.14 ug/mL

Name the recorded Solubility (ug/mL) pH 4 for O=C(O)c1cc(-c2ccc(C3=CC4CCC(C3)N4)cc2)c2ccc(-c3ccc(C(F)(F)F)cc3)cc2c1 (stereo not drawn) .
2.36 ± 0.01 ug/mL

Name the recorded Solubility (ug/mL) pH 4 for N[C@@H]1C[C@H](C(=O)O)C[C@H]1c1ccc(-c2cc(C(=O)O)cc3cc(-c4ccc(C(F)(F)F)cc4)ccc23)cc1 .
0.34 ± 0.07 ug/mL

* * *

# Test Target: CYP2C19 (Homo sapiens, UniProt P33261)
# Sequence (P33261 whole entry): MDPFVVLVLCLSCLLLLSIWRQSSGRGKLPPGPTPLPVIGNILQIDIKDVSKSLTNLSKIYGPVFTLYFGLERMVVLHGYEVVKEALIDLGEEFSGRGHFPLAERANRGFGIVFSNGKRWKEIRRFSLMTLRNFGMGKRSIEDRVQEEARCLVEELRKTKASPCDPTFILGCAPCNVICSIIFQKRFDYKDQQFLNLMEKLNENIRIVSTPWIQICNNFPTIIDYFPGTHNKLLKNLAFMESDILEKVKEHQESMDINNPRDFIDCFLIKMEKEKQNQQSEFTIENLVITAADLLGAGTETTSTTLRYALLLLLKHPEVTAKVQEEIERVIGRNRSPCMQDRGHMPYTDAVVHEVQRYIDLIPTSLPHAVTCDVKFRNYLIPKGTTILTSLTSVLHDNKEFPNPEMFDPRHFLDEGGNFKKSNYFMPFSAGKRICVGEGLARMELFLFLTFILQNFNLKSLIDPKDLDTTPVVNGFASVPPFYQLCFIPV
# Assay Remarks: CYP2C19 inhibition
# Type: in vitro ADME
# Condition Summary: Table 4
pIC50: −log10 of the molar value.
Measured Quantity: pIC50

Name the recorded pIC50 for O=C(O)c1cc(-c2ccc(-c3cc(CO)on3)cc2)c2ccc(-c3ccc(C(F)(F)F)cc3)cc2c1 [Compound 32] .
< 4.52

* * *

# Assay Remarks: Aqueous solubility, pION method
# Condition Summary: pH 4, aqueous buffer
Measured Quantity: solubility (µg/mL)
Respond numerically; units are µg/mL and should not be typed.

As a guide, the following entries are already answered.
Compound: O=C(O)c1cc(-c2ccc([C@]3(O)[C@@H]4CC[C@H]3CNC4)cc2)c2ccc(-c3ccc(C(F)(F)F)cc3)cc2c1 [Compound 131]
Measured Number: 2.32
//
Compound: CC(=O)N1C[C@H]2C[C@@H]1C[C@@H]2c1ccc(-c2cc(C(=O)O)cc3cc(-c4ccc(C(F)(F)F)cc4)ccc23)cc1 (racemic) [Compound 113]
Measured Number: 0.13
//
Compound: O=C(O)c1cc(-c2ccc([C@@]34CCNC[C@@H]3C4)cc2)c2ccc(-c3ccc(C(F)(F)F)cc3)cc2c1 (racemic) [Compound 108]
Measured Number: 1.32

Name the recorded solubility for CN1C[C@H]2CC[C@@H](C1)[C@]2(O)c1ccc(-c2cc(C(=O)O)cc3cc(-c4ccc(C(F)(F)F)cc4)ccc23)cc1 [Compound 132] .
1.81

Name the recorded solubility for O=C(O)c1cc(-c2ccc([C@@H]3CCN[C@H]4C[C@H]43)cc2)c2ccc(-c3ccc(C(F)(F)F)cc3)cc2c1 (racemic) [Compound 110] .
0.1

Name the recorded solubility for O=C(O)c1cc(-c2ccc(C3C4CCC3CNC4)cc2)c2ccc(-c3ccc(C(F)(F)F)cc3)cc2c1 (stereo not drawn) [Compound 133] .
0.32

* * *

# Assay Remarks: in vivo
# Condition Summary: Wistar, rat, iv, 0.5 mg/kg
Measured Quantity: bioavailability

Name the recorded bioavailability for O=C(O)c1cc(-c2ccc(-c3cc(CO)on3)cc2)c2ccc(-c3ccc(C(F)(F)F)cc3)cc2c1 .
100%

* * *

# Test Target: hP2Y14R (Homo sapiens)
# Construct: expressed in transfected cells; host or cells: CHO cells
# Assay Remarks: Inhibition of fluorescent antagonist binding in whole hP2Y14R-expressing CHO cells (flow cytometry)
# Condition Summary: Example 5 table; whole cell fluorescent binding assay; read-out: IC50
Measured Quantity: IC50 (µM)
Respond numerically; units are µM and should not be typed.

Compound: O=C(O)c1cc(-c2ccc([C@@]3(O)[C@@H]4CNC[C@H]3C4)cc2)c2ccc(-c3ccc(C(F)(F)F)cc3)cc2c1 [Compound 425]
Measured Number: 0.00592

Compound: O=C(O)c1cc(-c2ccc([C@H]3[C@@H]4CNC[C@H]3C4)cc2)c2ccc(-c3ccc(C(F)(F)F)cc3)cc2c1 [Compound 424]
Measured Number: 0.524

Compound: O=C(O)c1cc(-c2ccc(C34CCN(CC3)CC4)cc2)c2ccc(-c3ccc(C(F)(F)F)cc3)cc2c1 [Compound 4]
Measured Number: 0.02

Now turn to the next compound.
Name the recorded IC50 for O=C(O)c1cc(-c2ccc(C3CCCNCC3)cc2)c2ccc(-c3ccc(C(F)(F)F)cc3)cc2c1 (stereo not shown) [Compound 426] .
0.00958

* * *

# Test Target: hP2Y14R (Homo sapiens)
# Construct: expressed in transfected cells; host or cells: CHO cells
# Assay Remarks: Inhibition of fluorescent antagonist binding in whole hP2Y14R-expressing CHO cells (flow cytometry)
# Condition Summary: Table 2; whole hP2Y14R-CHO cells, 20 nM fluorescent antagonist 3, mean+SEM, n = 3-6; read-out: IC50
Measured Quantity: pIC50
Remember, pIC50 is on a log scale: it is -log10 of the molar concentration.

As a guide, the following entries are already answered.
Molecule: N[C@@H]1C[C@H](CO)C[C@H]1c1ccc(-c2cc(C(=O)O)cc3cc(-c4ccc(C(F)(F)F)cc4)ccc23)cc1
pIC50: 7.00
//
Molecule: O=C(O)c1cc(-c2ccc(C3CCN(CCCCc4cn([C@@H]5O[C@H](CO)[C@@H](O)[C@H](O)[C@H]5O)nn4)CC3)cc2)c2ccc(-c3ccc(C(F)(F)F)cc3)cc2c1
pIC50: 7.80
//
Molecule: O=C(O)c1cc(-c2ccc([C@@H]3C[C@@H]4C[C@H]3CN4)cc2)c2ccc(-c3ccc(C(F)(F)F)cc3)cc2c1
pIC50: 8.06
//
Molecule: O=C(O)c1cc(-c2ccc(C34CCNCC3C4(F)F)cc2)c2ccc(-c3ccc(C(F)(F)F)cc3)cc2c1 (stereo not drawn)
pIC50: 6.68
//
Molecule: CC1CC(c2ccc(-c3cc(C(=O)O)cc4cc(-c5ccc(C(F)(F)F)cc5)ccc34)cc2)CCN1 (stereo not drawn)
pIC50: 7.75

Now turn to the next molecule.
Name the recorded pIC50 for CS(=O)(=O)N1C[C@H]2C[C@@H]1C[C@@H]2c1ccc(-c2cc(C(=O)O)cc3cc(-c4ccc(C(F)(F)F)cc4)ccc23)cc1 .
6.30
